PROCEDURE SUMMARY: Phase 1a single ascending oral dose study, PK
EXPERIMENTAL CONTEXT: male, human, in vivo; single oral dose 10 mg, fasted; geometric mean
RECORDED METRIC: half-life (h)
Report the value in h with no unit label.

Lab book: half-life of "Cc1ccc(C2=CC(C)(C)Oc3ccc(-c4ccc(-c5ccc(C(=O)O)cc5)[nH]4)cc32)cc1" noted as 53.5

---

Test system: CYP3A4/5
PROCEDURE SUMMARY: In vitro CYP inhibition (direct and time-dependent), CYP3A4/5
Type: in vitro ADME
EXPERIMENTAL CONTEXT: human, CYP3A4/5, midazolam as substrate
RECORDED METRIC: pIC50
pIC50 is a log-scale quantity: -log10 of the concentration expressed in molar.

Lab book: pIC50 of Cc1ccc(C2=CC(C)(C)Oc3ccc(-c4ccc(-c5ccc(C(=O)O)cc5)[nH]4)cc32)cc1 [Compound A] noted as 4.23

---

PROCEDURE SUMMARY: Phase 1a single ascending oral dose study, PK
EXPERIMENTAL CONTEXT: male, human, in vivo, po, 30 mg, single oral dose 30 mg, fasted; geometric mean; read-out: AUC0-24
RECORDED METRIC: AUC(0-t) (ng·h/mL)
Report the value in ng·h/mL with no unit label.

Lab book: AUC(0-t) of "Cc1ccc(C2=CC(C)(C)Oc3ccc(-c4ccc(-c5ccc(C(=O)O)cc5)[nH]4)cc32)cc1" noted as 3520

---

PROCEDURE SUMMARY: In vitro stability in microsomes (rat)
Format: in vitro ADME
EXPERIMENTAL CONTEXT: rat, rats, read-out: Half-life (T1/2) in microsomes
RECORDED METRIC: half-life

Lab book: half-life of Cc1ccc(C2=CC(C)(C)Oc3ccc(-c4ccc(-c5ccc(C(=O)O)cc5)[nH]4)cc32)cc1 [Compound A] noted as > 23.1 h

---

PROCEDURE SUMMARY: Phase 1a single ascending oral dose study, PK
EXPERIMENTAL CONTEXT: male, human, in vivo, po, 180 mg, single oral dose 180 mg, fasted; geometric mean; read-out: AUC0-24
RECORDED METRIC: AUC(0-t) (ng·h/mL)
Report the value in ng·h/mL with no unit label.

Lab book: AUC(0-t) of "Cc1ccc(C2=CC(C)(C)Oc3ccc(-c4ccc(-c5ccc(C(=O)O)cc5)[nH]4)cc32)cc1" noted as 27300

---

PROCEDURE SUMMARY: Phase 1b MAD study (Part 1), 28-day dosing, PK;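 also: PK profiles sampled across 24 h on Day 1 and Day 28 while participants stayed overnight in the clinical research unit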
Assay type: in vivo, human
EXPERIMENTAL CONTEXT: male, human, in vivo, oral, 30 mg, 30 mg once daily, Day 28; mean; read-out: AUC0-last
RECORDED METRIC: AUC(0-t) (ng·h/mL)
Report the value in ng·h/mL with no unit label.

Lab book: AUC(0-t) of Cc1ccc(C2=CC(C)(C)Oc3ccc(-c4ccc(-c5ccc(C(=O)O)cc5)[nH]4)cc32)cc1 [Compound A] noted as 36100

---

SYSTEM: CYP2C9 (Homo sapiens)
Sequence (P11712 whole entry): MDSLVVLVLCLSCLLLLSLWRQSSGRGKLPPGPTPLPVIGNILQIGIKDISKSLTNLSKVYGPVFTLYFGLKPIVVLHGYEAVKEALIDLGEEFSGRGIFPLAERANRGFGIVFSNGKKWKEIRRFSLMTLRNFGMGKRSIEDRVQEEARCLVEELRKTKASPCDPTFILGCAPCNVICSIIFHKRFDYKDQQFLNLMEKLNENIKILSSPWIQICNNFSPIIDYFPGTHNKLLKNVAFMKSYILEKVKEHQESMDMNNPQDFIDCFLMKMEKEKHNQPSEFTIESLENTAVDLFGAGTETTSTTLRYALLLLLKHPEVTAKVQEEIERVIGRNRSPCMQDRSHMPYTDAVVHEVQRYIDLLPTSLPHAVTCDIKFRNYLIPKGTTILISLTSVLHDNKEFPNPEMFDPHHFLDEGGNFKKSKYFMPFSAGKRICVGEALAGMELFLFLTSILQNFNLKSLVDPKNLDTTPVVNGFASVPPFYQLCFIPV
PROCEDURE SUMMARY: In vitro CYP inhibition (direct and time-dependent), CYP2C9
EXPERIMENTAL CONTEXT: CYP2C9
RECORDED METRIC: pIC50
pIC50 is a log-scale quantity: -log10 of the concentration expressed in molar.

Lab book: pIC50 of "Cc1ccc(C2=CC(C)(C)Oc3ccc(-c4ccc(-c5ccc(C(=O)O)cc5)[nH]4)cc32)cc1" noted as 4.84
